test system: K-562 leukemia; assay: NCI-60 one-dose screen, 48 h (100 = growth as untreated, 0 = no growth, -100 = all killed); conditions: 10 µM unless noted
About 83,000 compounds went through this panel and 20% of them were active in at least one assay; those are over-represented in the sample as a whole.
# growth per entry

| Compound | Unit Label | growth |
| --- | --- | --- |
| N[C@@H](CCCCNCC(=O)O)C(=O)O | % | 100 |
| CCN1C(=O)N(CC)C2Nn3c(s/c(=C\c4cccc([N+](=O)[O-])c4)c3=O)=NC21 (centres undefined) | % | 19.9 |
| COc1cccc(-c2nc3sccn3c2-c2ccnc(NCCNS(=O)(=O)c3ccc(C(F)(F)F)cc3)c2)c1 | % | 25.7 |
| O=C(COc1ccc(/C=C2\Oc3ccccc3C2=O)cc1)Nc1nc2c(s1)CCCC2 | % | 20.9 |
| CCOc1ccccc1-c1cc(-c2cccs2)c(C#N)c(=O)[nH]1 | % | 48.6 |
| Oc1ccc(CN2CCC(N3CCOCC3)CC2)c2cccnc12 | % | 12.9 |
| Cc1ccc(C(=O)C2=C(O)C(=O)N(Cc3cccnc3)C2c2ccccc2F)o1 (centres undefined) | % | 76.7 |
| Cc1ccc(Nc2ccc(Nc3ccc(C)cc3)c3c2C(=O)c2cccc(O)c2C3=O)cc1 | % | 94.3 |
| CC1O[C@@H](OC2[C@H](OC(=O)/C=C/c3ccc(O)c(O)c3)C(COC3O[C@H](C)C(O)C(O)[C@@H]3O)O[C@@H](OCCc3ccc(O)c(O)c3)[C@H]2O)[C@@H](O)C(O)[C@H]1O (some centres undefined) | % | 105 |

The values you see were collected from PubChem BioAssay (NCI).
